tested-on: Gal(b1-4)GlcNAc(b1-2)[Gal(b1-4)GlcNAc(b1-6)]Man(a1-6)[GlcNAc(b1-4)][Gal(b1-4)GlcNAc(b1-2)Man(a1-3)]Man(b1-4)GlcNAc(b1-4)GlcNAc
method-notes: glycan array binding signal (z-score within array); higher = stronger binding
experimental-context: glycan notation: IUPAC condensed, linker removed
Shown is part of a subset that was picked to be rich in the strongest signals.
Classification field: satisfied = glycan array binding signal (z-score) at or over -0.3; not satisfied = glycan array binding signal (z-score) under -0.3.

Known results for binders:
SBD-G4S3-Fc (protein) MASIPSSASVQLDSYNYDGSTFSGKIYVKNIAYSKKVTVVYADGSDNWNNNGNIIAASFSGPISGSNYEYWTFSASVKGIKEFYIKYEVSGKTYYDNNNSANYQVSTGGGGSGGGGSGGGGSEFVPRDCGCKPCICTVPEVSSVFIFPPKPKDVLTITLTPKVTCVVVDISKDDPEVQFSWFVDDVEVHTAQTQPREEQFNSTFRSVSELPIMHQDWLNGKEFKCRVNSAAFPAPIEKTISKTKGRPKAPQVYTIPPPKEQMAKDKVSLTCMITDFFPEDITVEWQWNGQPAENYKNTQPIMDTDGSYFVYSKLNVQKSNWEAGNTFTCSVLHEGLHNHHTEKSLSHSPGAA    satisfied
AT5G24760(45) (Arabidopsis thaliana), Q8LEB2 (protein) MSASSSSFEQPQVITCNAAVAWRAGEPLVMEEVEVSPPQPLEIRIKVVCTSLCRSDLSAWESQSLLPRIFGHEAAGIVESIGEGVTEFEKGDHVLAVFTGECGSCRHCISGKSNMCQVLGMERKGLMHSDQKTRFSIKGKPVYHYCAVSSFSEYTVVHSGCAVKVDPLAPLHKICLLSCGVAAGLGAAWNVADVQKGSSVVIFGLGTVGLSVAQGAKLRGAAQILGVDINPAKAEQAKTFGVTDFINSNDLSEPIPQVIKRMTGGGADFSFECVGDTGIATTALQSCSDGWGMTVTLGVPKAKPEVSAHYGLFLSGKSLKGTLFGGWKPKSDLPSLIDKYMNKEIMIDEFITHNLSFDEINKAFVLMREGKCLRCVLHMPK    not satisfied
AT1G73650(15) (Arabidopsis thaliana), F4HRY1 (protein) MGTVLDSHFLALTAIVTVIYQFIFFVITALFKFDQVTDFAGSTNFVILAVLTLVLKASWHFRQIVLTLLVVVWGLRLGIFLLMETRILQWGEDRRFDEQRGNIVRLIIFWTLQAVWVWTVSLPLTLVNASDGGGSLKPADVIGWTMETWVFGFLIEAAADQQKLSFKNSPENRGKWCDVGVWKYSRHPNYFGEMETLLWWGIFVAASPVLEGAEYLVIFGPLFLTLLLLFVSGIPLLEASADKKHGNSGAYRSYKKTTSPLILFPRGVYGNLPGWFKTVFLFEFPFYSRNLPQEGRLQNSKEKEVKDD    not satisfied

Can OS9 (Arabidopsis thaliana) (protein) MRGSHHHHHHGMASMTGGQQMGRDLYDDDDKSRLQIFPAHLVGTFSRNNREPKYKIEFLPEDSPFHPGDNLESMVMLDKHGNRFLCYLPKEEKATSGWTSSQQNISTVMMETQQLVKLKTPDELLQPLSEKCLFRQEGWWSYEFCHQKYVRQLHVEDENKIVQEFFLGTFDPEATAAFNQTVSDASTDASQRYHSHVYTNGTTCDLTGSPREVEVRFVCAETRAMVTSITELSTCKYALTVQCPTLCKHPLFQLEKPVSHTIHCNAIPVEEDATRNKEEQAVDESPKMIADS be said to have glycan array binding signal (z-score) at or above -0.3?
satisfied

Data origin: the supplement of paper PMC8728848
